# EXPERIMENTAL_DETAILS: duplex melting temperature (HRM, EvaGreen); higher = more stable duplex
# ASSAY_SETUP: duplex concentration 5 µM; backbone: PS-PS (both strands fully phosphorothioate)
VALUE_TYPE: duplex melting temperature (°C)
Answer with a number only, understood to be in °C.

ATAACTTACTCTCGCCT    53

Request: Please report the recorded duplex melting temperature for `ACATGACTCATCTTAGCCGGCGAG` .
Response: 67

Request: Please report the recorded duplex melting temperature for `AACGAATGTCAGCAATT` .
Response: 52.3

Request: Please report the recorded duplex melting temperature for `TGCCATGTTGAAAACC` .
Response: 48.7

Request: Please report the recorded duplex melting temperature for `GAACCGTTGATGATCTC` .
Response: 52

Request: Please report the recorded duplex melting temperature for `GGTGGCGTTCTT` .
Response: 48

Request: Please report the recorded duplex melting temperature for `TGTAAGACTTCTGCCAGAAA` .
Response: 56.1

Request: Please report the recorded duplex melting temperature for `CGTGTGGATAATTAGCT` .
Response: 50.4

Request: Please report the recorded duplex melting temperature for `GCGGTTGGTGGCCAAC` .
Response: 61.6

Request: Please report the recorded duplex melting temperature for `GATCTCTCTATCATCGTTTATTGGGTAT` .
Response: 58.3

Request: Please report the recorded duplex melting temperature for `CAAACTTAGTAATCACGCCCAGCAACCA` .
Response: 65.8

Request: Please report the recorded duplex melting temperature for `CTCAGAGTAGAGCCGA` .
Response: 55.6

Request: Please report the recorded duplex melting temperature for `GTGGTACAAATGCGACC` .
Response: 54.9

Request: Please report the recorded duplex melting temperature for `CGGGATTTCTGGCATCATTGTCCT` .
Response: 63.4

Request: Please report the recorded duplex melting temperature for `AGGAGTGAATGAAATGG` .
Response: 48.4

Request: Please report the recorded duplex melting temperature for `GCAGGAGCCGCGACCTG` .
Response: 67

Request: Please report the recorded duplex melting temperature for `CTTTTGTGCGGGTAGC` .
Response: 55.1

----------
# EXPERIMENTAL_DETAILS: duplex formation entropy ΔS (Van't Hoff fit of HRM Tm); higher = smaller entropy loss on duplex formation
# ASSAY_SETUP: temperature for dG: 50 °C; NaCl: 500 mM (unadjusted); backbone: PS-PS (both strands fully phosphorothioate)
VALUE_TYPE: duplex formation entropy ΔS (cal/mol/K)
Answer with a number only, understood to be in cal/mol/K.

# example entries with known answers
GTCATTGTGCTTTTGC    -221
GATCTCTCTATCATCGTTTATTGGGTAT    -301

Request: Please report the recorded duplex formation entropy ΔS for `AGACATCCCATACGAGCATCCA` .
Response: -243

----------
# EXPERIMENTAL_DETAILS: duplex melting temperature (HRM, EvaGreen); higher = more stable duplex
# ASSAY_SETUP: duplex concentration 10 µM; backbone: PS-PO (listed strand fully phosphorothioate, complement phosphodiester)
VALUE_TYPE: duplex melting temperature (°C)
Answer with a number only, understood to be in °C.

GATTGTATCATCGACATCACACTACC    69.6
TCTCGCGGTTCCATTA    64.2
CAAGCCTCGATTTTGT    60.9
ACGGGTCGTTCCGTG    65.6
GAACCGTTGATGATCTC    61.3

Request: Please report the recorded duplex melting temperature for `AATGAGGAGTGAAATGG` .
Response: 61.3

Request: Please report the recorded duplex melting temperature for `TGTCGCACCCTACTA` .
Response: 64

Request: Please report the recorded duplex melting temperature for `AGAGCGCCCTGCTGCC` .
Response: 73.6

Request: Please report the recorded duplex melting temperature for `TGCCATGTTGAAAACC` .
Response: 60.3

Request: Please report the recorded duplex melting temperature for `GCAGGAGCCGCGACCTG` .
Response: 75.7

Request: Please report the recorded duplex melting temperature for `TATTCTGCCAATGGAAC` .
Response: 60.2

Request: Please report the recorded duplex melting temperature for `GTGAGCAGAAGGGGTT` .
Response: 66.8

Request: Please report the recorded duplex melting temperature for `CGTGTGGATAATTAGCT` .
Response: 60.6

Request: Please report the recorded duplex melting temperature for `AACGAATGTCAGCAATT` .
Response: 62.4

Request: Please report the recorded duplex melting temperature for `TTCTACATCCATCTTAATCCCA` .
Response: 63.8

Request: Please report the recorded duplex melting temperature for `TAGACGCGGCCTCTTTCC` .
Response: 72

Request: Please report the recorded duplex melting temperature for `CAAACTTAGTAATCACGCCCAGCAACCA` .
Response: 74.8
